assay.target: T1, human EphA5 (Homo sapiens, UniProt P54756)
T1 construct: a protein of the extracellular region of each human Eph receptor fused with the SEAP protein and the His tag; made in house; host or cells: Expi293F cells (culture supernatant)
T1 sequence (P54756 25-573 limits assumed): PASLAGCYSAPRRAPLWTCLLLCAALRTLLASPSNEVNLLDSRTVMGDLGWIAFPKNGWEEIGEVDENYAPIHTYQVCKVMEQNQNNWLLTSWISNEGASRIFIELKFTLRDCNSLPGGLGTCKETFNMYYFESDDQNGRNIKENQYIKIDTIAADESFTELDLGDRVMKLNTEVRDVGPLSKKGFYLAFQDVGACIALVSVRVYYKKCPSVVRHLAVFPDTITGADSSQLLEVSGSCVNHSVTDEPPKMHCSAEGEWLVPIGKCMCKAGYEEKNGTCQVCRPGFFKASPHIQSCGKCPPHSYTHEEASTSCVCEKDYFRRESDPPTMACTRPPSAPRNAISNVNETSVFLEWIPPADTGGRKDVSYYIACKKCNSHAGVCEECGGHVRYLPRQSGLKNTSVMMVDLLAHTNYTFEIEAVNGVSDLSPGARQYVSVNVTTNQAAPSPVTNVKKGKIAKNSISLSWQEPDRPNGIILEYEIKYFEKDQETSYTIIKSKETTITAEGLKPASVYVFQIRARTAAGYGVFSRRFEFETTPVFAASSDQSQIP
test.details: Selectivity ELISA of humanized antibodies for human Eph receptor
Assay type: binding
run.conditions: coated protein 1 nM
Excerpt: According to the method described in Example 7, a DNA sequence encoding the signal sequence and the extracellular region of each human Eph receptor (EphA1, EphA2, EphA3, EphA4, EphA5, EphA6, EphA7, EphA8, EphA10, EphB1, EphB2, EphB3, EphB4, and EphB6) was amplified by RT-PCR using tissue-derived total RNA and cloned into a pENTR1A vector (Invitrogen/Life Technologies) having a DNA sequence encoding SEAP protein and histidine tag. […]
property: hEphA5-SEAP-: absorbance at 450 nm, percentage with respect to hEphA4-SEAP-His as 100%
# output: number + unit

Memo: 133 (antibody, V domains shown, synthetic humanized antibody heavy chain variable region sequence; synthetic humanized antibody light chain variable region sequence) VH: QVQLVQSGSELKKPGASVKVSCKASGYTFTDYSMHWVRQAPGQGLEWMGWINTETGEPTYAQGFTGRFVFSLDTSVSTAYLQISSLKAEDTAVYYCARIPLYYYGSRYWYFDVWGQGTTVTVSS VL: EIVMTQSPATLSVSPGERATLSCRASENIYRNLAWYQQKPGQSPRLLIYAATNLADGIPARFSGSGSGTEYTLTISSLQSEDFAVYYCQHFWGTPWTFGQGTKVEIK , reported hEphA5-SEAP-: absorbance at 450 nm, percentage with respect to hEphA4-SEAP-His as 100%: 4.7%
